I'd be grateful if you could share measured pIC50 for these entries.
Biological target: Dihydrofolate reductase (Mycobacterium tuberculosis, UniProt P9WNX1)
Sequence (P9WNX1 whole entry): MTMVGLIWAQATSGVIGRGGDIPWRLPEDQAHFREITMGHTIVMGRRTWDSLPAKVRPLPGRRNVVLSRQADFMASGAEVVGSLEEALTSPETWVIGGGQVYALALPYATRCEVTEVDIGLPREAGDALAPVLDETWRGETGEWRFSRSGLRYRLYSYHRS
Experiment: Inhibition of recombinant Mycobacterium tuberculosis DHFR expressed in Escherichia coli BL21(DE3) cells using DHF as substrate and NADPH as cofactor by fluorimetric analysis
Give bare numbers, as −log10 of the molar value.

> print(dat)
                        input.smiles  numeric.result
1     COc1ccc(OCc2ccc(C(=O)O)cc2)cc1            4.51
2    COC(=O)c1ccc(COc2ccc(OC)cc2)cc1            4.59
3         O=C(O)c1cccc(CSc2ccccc2)c1            3.89
4  c1ccc(OCc2cccc(-c3nnn[nH]3)c2)cc1            3.34
5     COc1ccc(OCc2cccc(C(=O)O)c2)cc1            3.92

For every item below, please supply its pIC50.
1. O=C(O)c1cccc(COc2ccc([N+](=O)[O-])cc2)c1
2. O=C(O)c1ccc(COc2ccccc2)cc1
3. O=C(O)c1cccc(CNc2ccccc2)c1
4. O=C(O)c1cccc(COc2ccc(O)cc2)c1

1. 4.64
2. 3.35
3. 5.15
4. 4.44

For every item below, please supply its pIC50.
1. COC(=O)c1cccc(-n2cc(COc3ccccc3)nn2)c1
2. O=C(O)c1cccc(OCc2ccccc2)c1
3. COC(=O)c1cccc(COc2ccc(OC)cc2)c1
4. COC(=O)c1ccc(COc2ccccc2)cc1

1. 4.09
2. 3.64
3. 3.62
4. 3.82

I'm hoping you can list pIC50 for every compound here, please.
1. COC(=O)c1cccc(COc2ccc([N+](=O)[O-])cc2)c1
2. COC(=O)c1cccc(CSc2ccccc2)c1

4.46
4.12

###

Provide the reported Ratio IC50 of each item.
target: Dihydrofolate reductase (Mycobacterium tuberculosis) (UniProt P9WNX1); test: Potency index, ratio of MB872 IC50 to test compound IC50 for recombinant Mycobacterium tuberculosis DHFR expressed in Escherichia coli BL21(DE3) cells using DHF as substrate and NADPH as cofactor by fluorimetric analysis
Answers are plain numbers.

> print(dat)
                      input.smiles                              assay.system  numeric.result
1  COC(=O)c1ccc(COc2ccc(OC)cc2)cc1  Dihydrofolate reductase (Mycobacterium tuberculosis) (UniProt P9WNX1)              16

# batch size: 2; output Ratio IC50 per entry
1. COc1ccc(OCc2ccc(C(=O)O)cc2)cc1
2. O=C(O)c1cccc(CNc2ccccc2)c1

1: 19; 2: 71

###

target: Dihydrofolate reductase (Mycobacterium tuberculosis); experiment: Inhibition of recombinant Mycobacterium tuberculosis DHFR expressed in Escherichia coli BL21(DE3) cells using DHF as substrate and NADPH as cofactor by fluorimetric analysis
pIC50: −log10 of the molar value.
Would you kindly list pIC50 for each of these compounds?

> print(dat)
                           input.smiles  value.type  result
1  O=C(O)c1cccc(-n2cc(COc3ccccc3)nn2)c1       pIC50  < 3.30
2           COC(=O)c1cccc(OCc2ccccc2)c1       pIC50  < 3.30
3           COC(=O)c1cccc(COc2ccccc2)c1       pIC50  < 3.30

Request: pIC50, test system Dihydrofolate reductase (Mycobacterium tuberculosis), entry O=C(O)c1cccc(COc2ccccc2)c1
≤ 3.30

###

target: UniProt:P9WNX1; assay: Potency index, ratio of MB872 IC50 to test compound IC50 for recombinant Mycobacterium tuberculosis DHFR expressed in Escherichia coli BL21(DE3) cells using DHF as substrate and NADPH as cofactor by fluorimetric analysis
Value Type: Ratio IC50

> print(dat)
                               input.smiles  value.type    result
1  COC(=O)c1cccc(COc2ccc([N+](=O)[O-])cc2)c1  Ratio IC50  13 to 21
2  O=C(O)c1cccc(COc2ccc([N+](=O)[O-])cc2)c1  Ratio IC50  13 to 21

Fill blank: measured Ratio IC50 of the compound O=C(O)c1cccc(COc2ccc(O)cc2)c1 is ____.
13 to 21
